Experiment: in vivo
Assay type: in vivo, mice
Conditions: FVB (wild type), mouse, in vivo, iv, 0.5 mg/kg
Numbered stars: 1 amine (or outer) side, 2 acyl side, 3 side chain; on linkers, the order of the positions; unused ones are H or OH. Bridge positions count the residues as written; N and C are the ends. Square brackets hold non-standard residues; d marks the D form. Peptide text beside a SMILES is read from it. I, II: the chains in the order shown. Actinocin(9to1) = Cc1c2oc3c(C)ccc(C(=O)[*:1])c3nc-2c(C(=O)[*:2])c(N)c1=O; NMeV = CN[C@H](C(=O)O)C(C)C; Sar = CNCC(=O)O

- compound: "Cc1c2oc3c(C)ccc(C(=O)N[C@@H]4C(=O)N[C@H](C(C)C)C(=O)N5CCC[C@H]5C(=O)N(C)CC(=O)N(C)[C@@H](C(C)C)C(=O)O[C@@H]4C)c3nc-2c(C(=O)N[C@@H]2C(=O)N[C@H](C(C)C)C(=O)N3CCC[C@H]3C(=O)N(C)CC(=O)N(C)[C@@H](C(C)C)C(=O)O[C@@H]2C)c(N)c1=O [Act D, actinomycin D] (I: T[dV]P[Sar][NMeV] / II: T[dV]P[Sar][NMeV]; ester I:1-I:C, II:1-II:C; linker I:N-II:N via Actinocin(9to1))"
  unit of measurement: "h"
  half-life: 1.92
